Test system: sole of the rat paws
MEASUREMENT_PROTOCOL: Measurement of skin lesion (erythema) on rat paw;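 also: grades − to ++++ mean no to extremely severe erythema versus before injection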
Assay type: in vivo, Sprague Dawley rats
EXPERIMENTAL_SETUP: bile acid single composition 7.5% (w/v)
OBSERVABLE: grade of skin lesion (erythema), 1 hour after administration

Study these solved cases before continuing.
C[C@H](CCC(=O)NCCS(=O)(=O)O)[C@H]1CC[C@H]2C3CC[C@@H]4C[C@H](O)CC[C@]4(C)[C@H]3C[C@H](O)[C@]12C (some centres unmarked)
++++
C[C@H](CCC(=O)O)[C@H]1CC[C@H]2[C@@H]3C[C@H](O)[C@@H]4C[C@H](O)CC[C@]4(C)[C@H]3CC[C@]12C
++++
C[C@H](CCC(=O)NCC(=O)O)[C@H]1CC[C@H]2[C@@H]3CCC4C[C@H](O)CC[C@]4(C)[C@H]3C[C@H](O)[C@]12C (some centres unmarked)
++++
C[C@H](CCC(=O)O)[C@H]1CC[C@H]2[C@@H]3[C@H](O)C[C@@H]4C[C@H](O)CC[C@]4(C)[C@H]3CC[C@]12C
++++
C[C@H](CCC(=O)O)[C@H]1CC[C@H]2[C@@H]3CC[C@@H]4C[C@H](O)CC[C@]4(C)[C@H]3C[C@H](O)[C@]12C
++++

# input compound: C[C@H](CCC(=O)NCCS(=O)(=O)O)[C@H]1CC[C@H]2[C@@H]3[C@@H](O)C[C@@H]4C[C@H](O)CC[C@]4(C)[C@H]3CC[C@]12C ; wanted: its grade of skin lesion (erythema), 1 hour after administration
−

Also check C[C@H](CCC(=O)NCC(=O)O)[C@H]1CC[C@H]2[C@@H]3[C@H](O)C[C@@H]4C[C@H](O)CC[C@]4(C)[C@H]3C[C@H](O)[C@]12C
++

Input C[C@H](CCC(=O)O)[C@H]1CC[C@H]2[C@@H]3[C@@H](O)C[C@@H]4C[C@H](O)CC[C@]4(C)[C@H]3CC[C@]12C
++++
